Origin of values: patent US20250270304A1

Biological target: T1, Inhibin A (Homo sapiens (Human), UniProt P05111 233-366; P08476 311-426)
T1 sequence 1: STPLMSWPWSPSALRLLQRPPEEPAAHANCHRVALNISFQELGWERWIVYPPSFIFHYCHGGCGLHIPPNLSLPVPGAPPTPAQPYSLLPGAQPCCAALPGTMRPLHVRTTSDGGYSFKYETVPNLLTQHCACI
T1 sequence 2: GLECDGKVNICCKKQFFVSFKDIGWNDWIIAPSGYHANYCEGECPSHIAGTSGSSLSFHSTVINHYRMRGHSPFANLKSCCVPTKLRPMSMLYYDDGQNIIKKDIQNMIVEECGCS
Test: ELISA, coated antigen, OD450
measured-property: fold-change of OD 450 over negative control (BSA) (fold)

INSERT INTO results (binder, reported_measurement) VALUES
  ('AB350 (antibody, IgG1, V domains shown) VH: QVQLQESGPGLVKPSQTLSLTCTVSGVSLSDARMGVNWIRQPPGKGLEWIGYVSTTGTTDYNPSLKSRVTMSVDTSKNQFSLKVNSVTAADTAVYYCARAGYPDVWGKGTLVTVSS VL: EIVMTQSPATLSLSPGERATLSCRASESVRSNLAWYQQKPGQAPRLLIYGASNRASGIPARFSGSGSGTDFTLTISSLEPEDFAVYYCQQYHTWPPWAFGGGTKVEIK', 0.65),
  ('AB372 (antibody, IgG1, V domains shown) VH: QVTLRESGPALVKPTQTLTLTCTVSGFSLSTSGATVNWIRQPPGKALEWIGYITSSGRTVYNSALKSRLTISKDTSKNQVVLTMTNMDPVDTATYYCTTTKIVGATLRDYWGQGTLVTVSS VL: DIVMTQSPDSLAVSLGERATINCKSSQSVLDTSTNRNYLAWYQQKPGQPPKLLIYGASIRAGGVPDRFSGSGSGTDFTLTISSLQAEDVAVYYCQQSYSHPPTFGGGTKVEIK', 0.43),
  ('AB465 (antibody, IgG1, V domains shown) VH: QVQLQESGPGLVKPSQTLSLTCTVSGASVSNARTGVNWIRQPPGKGLEWIGYINPSGRIDYNPSLKSRVTMSVDTSKNQFSLKVNSVTAADTAVYYCARAGYPDVWGKGTTVTVSS VL: EIVMTQSPATLSLSPGERATLSCRASQTVSSHLAWYQQKPGQAPRLLIYDVSHRASGIPARFSGSGSGTDFTLTISSLEPEDFAVYYCQQYFTLPTFGGGTKVEIK', 0.46);
